- study_system: 5-hydroxytryptamine receptor 2B (Homo sapiens); also: assay procedure not described here
- Sequence (P41595 whole entry): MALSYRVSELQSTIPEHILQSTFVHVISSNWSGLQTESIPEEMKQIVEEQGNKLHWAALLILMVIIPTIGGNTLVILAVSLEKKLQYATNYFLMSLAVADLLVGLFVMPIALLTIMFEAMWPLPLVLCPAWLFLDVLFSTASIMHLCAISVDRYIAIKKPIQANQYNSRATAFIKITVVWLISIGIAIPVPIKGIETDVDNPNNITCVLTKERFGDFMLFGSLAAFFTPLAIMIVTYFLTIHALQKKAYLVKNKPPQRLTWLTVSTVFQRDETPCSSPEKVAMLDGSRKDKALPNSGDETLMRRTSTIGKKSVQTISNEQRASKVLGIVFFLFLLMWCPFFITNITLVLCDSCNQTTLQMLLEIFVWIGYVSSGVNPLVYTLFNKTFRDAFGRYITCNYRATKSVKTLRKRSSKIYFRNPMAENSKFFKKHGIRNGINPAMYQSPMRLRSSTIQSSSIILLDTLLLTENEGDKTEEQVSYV
- Type: functional, cell-based
measured_parameter: AC50

# count of solved cases: 3
{"compound": "CNC(=C[N+](=O)[O-])NCCSCc1csc(CN(C)C)n1 [NIZATIDINE]", "AC50": "> 10 µM"}
{"compound": "C=C1c2cccc(O)c2C(=O)C2=C(O)[C@]3(O)C(=O)C(C(N)=O)=C(O)[C@@H](N(C)C)[C@@H]3[C@@H](O)[C@H]12 [METHACYCLINE]", "AC50": "> 10 µM"}
{"compound": "COc1ccc(CN2CCN(C(c3ccc(F)cc3)c3ccc(F)cc3)CC2)c(OC)c1OC [LOMERIZINE]", "AC50": "> 30 µM"}

INPUT: GET /values?readout=AC50&item= "C[N+](C)(C)CCOP(=O)([O-])OC[C@H](O)CO"
OUTPUT: > 30 µM

INPUT: CCC1(c2ccc(N)cc2)CCC(=O)NC1=O (stereo not given) [AMINOGLUTETHIMIDE] , same question.
OUTPUT: > 30 µM

INPUT: NS(=O)(=O)c1cc2c(cc1Cl)N=C(CSCc1ccccc1)NS2(=O)=O [BENZTHIAZIDE] , same question.
OUTPUT: > 10 µM

INPUT: CCCN1CCCC[C@H]1C(=O)Nc1c(C)cccc1C [ROPIVACAINE] , same question.
OUTPUT: > 30 µM

INPUT: CC(C)(Oc1ccc(CCNC(=O)c2ccc(Cl)cc2)cc1)C(=O)O [BEZAFIBRATE] , same question.
OUTPUT: > 10 µM

INPUT: "CCOc1cc([C@@H](CS(C)(=O)=O)N2C(=O)c3cccc(NC(C)=O)c3C2=O)ccc1OC" , same question.
OUTPUT: > 30 µM

INPUT: CC(CN1c2ccccc2Sc2ccccc21)N(C)C (stereo not given) [PROMETHAZINE] , same question.
OUTPUT: > 10 µM

INPUT: CC1=C(/C=C/C(C)=C/C=C/C(C)=C/CO)C(C)(C)CCC1 [RETINOL] , same question.
OUTPUT: > 10 µM
